System: SW480
testProtocol: Anticancer activity against human SW480 cells expressing GPR120 assessed as inhibition of cell viability measured after 48 hrs by alamar blue assay
Format: functional, cell-based
particulars: SW480, 48 h
pIC50: −log10 of the molar value.
Listing of recorded pIC50 by entry.

- smilesStructure: "O=C1c2cc(S(=O)(=O)Nc3cccc4ccccc34)ccc2-c2ccc(S(=O)(=O)Nc3cccc4ccccc34)cc21"
  pIC50: 4.30
- smilesStructure: "Cc1ccc(-n2c(SCC(=O)c3ccccc3)nc3c(c2=O)C2(CCCC2)Cc2ccccc2-3)cc1"
  pIC50: 4.30
